Assay: PSAC antagonists in infected red cells, primary screen, cell-based, P. falciparum Indochina, OD700, 1 h (AID 1154)
Conditions: P. falciparum Indochina infected RBC osmotic lysis, called active from +8 up or from −8 down
Activity calls are given as the source filed them.
Log the outcome using a class from active, inactive

Below, 7 molecules whose answers are already recorded.
>  <MOLECULE>
CCN1C(=O)[C@H]2[C@@H]3C(=CC[C@H]2C1=O)C(=O)[C@H]1O[C@H]1[C@H]3O

>  <CATEGORY LABEL>
inactive

$$$$
>  <MOLECULE>
COC(=O)[C@@H]1CC[C@H](C)[C@@H](c2ccc(Br)cc2)N1C[C@H](O)CN=[N+]=[N-]

>  <CATEGORY LABEL>
inactive

$$$$
>  <MOLECULE>
CCOC(=O)NN=C1C[C@@H](O)[C@@H](O)[C@@H]2[C@@H]3C(=O)N(C[C@@H]4CCCO4)C(=O)[C@@H]3CC[C@H]12

>  <CATEGORY LABEL>
inactive

$$$$
>  <MOLECULE>
CCOC(=O)[C@H](CC(C)C)NC(=O)CCC1CC(OC(=O)NCc2ccc3c(c2)OCO3)CC2(CCCC(COC(=O)NCc3ccccc3)O2)O1 (stereo partly drawn)

>  <CATEGORY LABEL>
inactive

$$$$
>  <MOLECULE>
Cc1ccc2[nH]c3nc(CCCn4ccnc4-c4ccccc4)nnc3c2c1

>  <CATEGORY LABEL>
active

$$$$
>  <MOLECULE>
C[C@@H]1C=CCC(=O)OC[C@H](C)C(=O)N[C@@H](Cc2ccccc2)C(=O)OC1

>  <CATEGORY LABEL>
inactive

$$$$
>  <MOLECULE>
O=C1C[C@H](c2ccccc2)[C@H](c2ccc(Br)cc2)O1

>  <CATEGORY LABEL>
inactive

$$$$

QUERY: Fill in: this test's call for `CO[C@H]1COC(=O)CCC[C@H](C)[C@@H](OC)COC(=O)CC=C[C@@H]1C` is ___
RESULT: inactive

###

Biological target: Neurogenic locus notch homolog protein 3 (Homo sapiens) (UniProt Q9UM47)
Sequence (Q9UM47 whole entry, looked up): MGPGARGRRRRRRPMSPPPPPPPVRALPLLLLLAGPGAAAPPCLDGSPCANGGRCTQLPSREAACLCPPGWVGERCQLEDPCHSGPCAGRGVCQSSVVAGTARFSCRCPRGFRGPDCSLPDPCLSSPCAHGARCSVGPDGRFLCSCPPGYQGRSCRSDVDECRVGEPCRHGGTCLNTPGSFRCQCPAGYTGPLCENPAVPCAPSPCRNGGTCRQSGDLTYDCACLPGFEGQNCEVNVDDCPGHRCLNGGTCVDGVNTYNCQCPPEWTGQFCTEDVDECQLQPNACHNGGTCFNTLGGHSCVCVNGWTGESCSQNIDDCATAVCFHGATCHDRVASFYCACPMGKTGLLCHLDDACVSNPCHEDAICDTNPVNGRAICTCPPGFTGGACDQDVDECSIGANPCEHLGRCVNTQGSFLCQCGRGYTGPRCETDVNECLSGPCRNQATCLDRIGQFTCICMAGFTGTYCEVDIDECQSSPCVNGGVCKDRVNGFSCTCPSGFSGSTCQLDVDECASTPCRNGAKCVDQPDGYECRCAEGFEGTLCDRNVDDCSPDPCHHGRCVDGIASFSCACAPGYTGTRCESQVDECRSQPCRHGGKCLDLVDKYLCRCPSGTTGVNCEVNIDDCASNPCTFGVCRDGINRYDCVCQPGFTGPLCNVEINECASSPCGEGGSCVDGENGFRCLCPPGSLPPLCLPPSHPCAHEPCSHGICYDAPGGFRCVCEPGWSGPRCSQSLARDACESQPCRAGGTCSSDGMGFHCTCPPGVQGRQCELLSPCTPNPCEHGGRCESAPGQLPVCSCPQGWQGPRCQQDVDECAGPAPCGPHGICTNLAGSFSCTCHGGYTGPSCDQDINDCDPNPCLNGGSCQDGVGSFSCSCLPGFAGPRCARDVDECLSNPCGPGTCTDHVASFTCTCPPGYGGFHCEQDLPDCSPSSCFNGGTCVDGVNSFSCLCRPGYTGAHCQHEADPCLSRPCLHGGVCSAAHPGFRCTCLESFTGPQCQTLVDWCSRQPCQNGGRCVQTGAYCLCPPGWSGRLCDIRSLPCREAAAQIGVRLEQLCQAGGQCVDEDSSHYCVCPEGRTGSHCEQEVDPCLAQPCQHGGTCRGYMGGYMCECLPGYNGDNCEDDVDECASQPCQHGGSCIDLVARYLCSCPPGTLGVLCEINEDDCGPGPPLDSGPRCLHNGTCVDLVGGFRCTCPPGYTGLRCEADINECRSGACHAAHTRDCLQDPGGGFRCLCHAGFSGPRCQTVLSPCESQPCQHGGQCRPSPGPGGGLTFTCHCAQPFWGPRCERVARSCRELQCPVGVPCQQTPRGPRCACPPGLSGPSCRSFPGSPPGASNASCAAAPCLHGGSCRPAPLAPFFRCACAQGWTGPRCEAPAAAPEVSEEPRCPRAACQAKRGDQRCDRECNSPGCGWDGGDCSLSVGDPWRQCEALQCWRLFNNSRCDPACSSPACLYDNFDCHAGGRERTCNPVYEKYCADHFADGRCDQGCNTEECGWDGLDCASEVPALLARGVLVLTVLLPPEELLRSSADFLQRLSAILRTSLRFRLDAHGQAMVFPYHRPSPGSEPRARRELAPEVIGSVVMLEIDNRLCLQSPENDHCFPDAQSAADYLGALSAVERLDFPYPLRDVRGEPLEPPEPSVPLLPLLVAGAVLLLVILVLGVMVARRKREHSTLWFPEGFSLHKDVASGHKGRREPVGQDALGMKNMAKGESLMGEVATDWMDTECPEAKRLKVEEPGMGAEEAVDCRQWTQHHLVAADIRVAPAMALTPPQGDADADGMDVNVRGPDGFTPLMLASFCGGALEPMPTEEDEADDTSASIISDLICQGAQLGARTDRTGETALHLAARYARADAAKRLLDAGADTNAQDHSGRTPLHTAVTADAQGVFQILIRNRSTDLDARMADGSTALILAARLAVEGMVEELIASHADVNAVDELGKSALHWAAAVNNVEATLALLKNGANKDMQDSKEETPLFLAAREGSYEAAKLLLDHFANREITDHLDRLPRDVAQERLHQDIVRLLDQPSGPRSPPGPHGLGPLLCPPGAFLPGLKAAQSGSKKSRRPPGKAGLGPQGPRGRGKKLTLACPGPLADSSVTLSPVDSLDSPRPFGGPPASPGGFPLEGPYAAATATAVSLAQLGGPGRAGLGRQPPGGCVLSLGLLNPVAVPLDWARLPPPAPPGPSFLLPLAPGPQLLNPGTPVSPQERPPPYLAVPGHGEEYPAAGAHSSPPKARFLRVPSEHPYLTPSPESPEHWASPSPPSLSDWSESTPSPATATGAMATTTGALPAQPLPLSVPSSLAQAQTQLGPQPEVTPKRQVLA
Test: NOTCH3 binders on small-molecule microarray, primary screen, biochemical, 635/667 nm fluorescence (AID 1096)
Conditions: NOTCH3 binding, 635 nm fluorescence, higher = more signal
Lab note: anything with composite z-score at or over 0.6 counts as Yes; the rest go in No.

>  <COMPOUND>
CCCC[C@H]1CN2[C@@H](CC[C@@H](C)[C@@H]2c2ccc(Br)cc2)C(=O)O1

>  <CATEGORY LABEL>
Yes

$$$$

QUERY: # bool: composite z-score of `CC(CCC(=O)OC[C@H]1O[C@H](C#Cc2ccccc2)C=C[C@@H]1Oc1ccc(C)cc1)=NOC[C@@H](C)[C@H](OCc1ccccc1)C(C)C` >= 0.6
RESULT: No

QUERY: Now the same for `COc1cccc([C@H]2Oc3ccc(OC)cc3C(=NOCC[C@@H]3C=C[C@H](OC(C)=O)[C@@H](COC(C)=O)O3)[C@@H]2O)c1`
RESULT: Yes

QUERY: Now the same for `CC(CCN1CCCCc2nc(C)c(C)cc21)=NO[C@H](C)c1cn([C@@H]2COC[C@H]2O)nn1`
RESULT: No

QUERY: What do you have for `CCc1cc2c(nc1CC)CCN(CCC(C)=NO[C@@H]1O[C@H](COC(C)=O)[C@@H](OC(C)=O)[C@H](OC(C)=O)[C@H]1OC(C)=O)C2` ?
RESULT: Yes

QUERY: Ok, now `COc1ccc(COC(=O)NN=C2C[C@@H](O)[C@@H](O)[C@@H]3[C@@H]4C(=O)N(C[C@@H]5CCCO5)C(=O)[C@@H]4CC[C@@H]23)cc1`
RESULT: No

QUERY: Next record, please: `CC(C)CON=C1C[C@@H](O)[C@@H](O)[C@@H]2[C@@H]3C(=O)N(c4ccc(F)cc4F)C(=O)[C@@H]3CC[C@@H]12`
RESULT: Yes

QUERY: Try this compound next: CO[C@@H](C(C)C)[C@@H](C)C1OC(=O)CC1O (stereo not given in full)
RESULT: No

QUERY: What do you get for `CCN1C(=O)[C@H]2[C@H]3[C@H](O)[C@H](O)CC(=NO[C@@H]4O[C@H](COC(C)=O)[C@@H](OC(C)=O)[C@H](OC(C)=O)[C@H]4OC(C)=O)[C@@H]3CC[C@H]2C1=O` ?
RESULT: Yes

QUERY: Quick one: `CC(C)=CCCC(C)=CCON=C1C[C@@H](O)[C@@H](O)[C@@H]2[C@@H]3C(=O)N(Cc4ccc5c(c4)OCO5)C(=O)[C@@H]3CC[C@H]12`
RESULT: Yes

QUERY: Another compound: C[C@H]1CC[C@H]2C(=O)OC(COc3ccc(C(C)(C)C)cc3)CN2[C@@H]1c1ccc(Br)cc1 (stereo not given in full)
RESULT: No

QUERY: Again, but for `CC(C)=NO[C@H](C)c1cn([C@@H]2COC[C@H]2O)nn1`
RESULT: No

QUERY: Would you mind doing `O=C1C[C@@H](O)[C@@H](O)[C@@H]2[C@@H]3C(=O)N(Cc4ccccc4)C(=O)[C@@H]3CC[C@H]12` as well?
RESULT: No

QUERY: // query: `Cc1cc(C)c(-c2cc([C@H](C)ON=C[C@@H](C)[C@H](OCc3ccccc3)C(C)C)on2)c(C)c1`
RESULT: No

Sourced from PubChem BioAssay
